System: a variety of test species
Assay: Post-emergence herbicidal activity (Example 8b, Table 3)
Format: in vivo
Conditions: Zea mays; application post-emergence; rate 1000 g/ha; evaluated after 13 days; scale 0-5
Consider the following molecules; for each one, report its Herbicidal damage score, ZEAMX.
Give bare numbers.

Please review the entries below; each comes with its answer.
MOLECULE	OBSERVED_RESULT
COC1=C(OC)C(O)N(c2cc3n(n2)CCCC3(C)C)C1=O (centres unmarked)	5
CC(C)=CCc1cc(N2C(=O)C(Cl)=C(C)C2O)nn1C (centres unmarked) [Compound B10]	2
CC1=C(Cl)C(=O)N(c2cc(C(C)c3ccccc3)n(C)n2)C1O (mixture of isomers)	2
CC1=C(Cl)C(=O)N(c2cc(C3=CCC(C)(C)CC3)n(C)n2)C1O (centres unmarked)	1

As a next step, examine the molecule that follows.
Request: Record request: Herbicidal damage score, ZEAMX value, item CC1=C(Cl)C(=O)N(c2cc(C(F)(F)F)n(CC(F)(F)F)n2)C1O (centres unmarked) [Compound C9]
Response: 3

* * *

Hi there, I'd appreciate the recorded Pre-emergence herbicidal activity, damage score SETFA for every entry that follows.
Test system: a variety of test species
Assay: Pre-emergence herbicidal activity (Example 8a, Table 2)
Assay type: in vivo
Design: key: 0 = no damage to plant, 5 = total damage to plant
Details: SETFA; application pre-emergence; rate 1000 g/ha; evaluated after 13 days
Answers are plain numbers.

Worked cases, Pre-emergence herbicidal activity, damage score SETFA given:
MOLECULE	OBSERVED_RESULT
CC1=C(Cl)C(=O)N(c2cc3n(n2)CCCC3(C)C)C1O (centres unmarked) [Compound G9]	5
COC1=C(Br)C(=O)N(c2nn(C)c(C(C)(C)C)c2Br)C1O (centres unmarked)	0
CC1=C(Cl)C(=O)N(c2cc(C(C)(C)C)n(C)n2)C1O (centres unmarked)	5
C/C=C/c1cc(N2C(=O)C(Cl)=C(C)C2O)nn1C (centres unmarked)	3
CCC1=C(Cl)C(=O)N(c2ccn(C)n2)C1O (centres unmarked)	0
CSc1cc(N2C(=O)C(Cl)=C(C)C2O)nn1C (centres unmarked)	5

For every listed record, write down its Pre-emergence herbicidal activity, damage score SETFA.
1. CC1=C(Cl)C(=O)N(c2cc(C)n(C)n2)C1O (centres unmarked)
2. CCC1=C(Br)C(=O)N(c2nn(C)c(C(C)(C)C)c2C#N)C1O (centres unmarked)

Response:
[4, 3]

* * *

Tested on: a variety of test species
Experiment: Post-emergence herbicidal activity (Example 8b, Table 3)
Assay type: in vivo
Conditions: Zea mays; application post-emergence; rate 1000 g/ha; evaluated after 13 days; scale 0-5
MEASUREMENT_NAME: Herbicidal damage score, ZEAMX
Give bare numbers.

Okay, here is my list. What is Herbicidal damage score, ZEAMX for each of these?
1. CCn1nc(N2C(=O)C(Cl)=C(C)C2O)cc1C(C)(C)C (stereo not drawn) [Compound C2]
2. CCn1nc(N2C(=O)C(Cl)=C(C)C2O)c2c1C(C)(C)CC2 (stereo not drawn) [Compound C3]
3. CC1=C(Cl)C(=O)N(c2cc(C)n(C)n2)C1O (stereo not drawn)
4. CC1=C(Cl)C(=O)N(c2nn(C)c3c2C2CCC3C2)C1O (stereo not drawn)

Response:
1. 3
2. 4
3. 5
4. 4

// each compound listed below needs its Herbicidal damage score, ZEAMX
1. CC1=C(Cl)C(=O)N(c2nn(C)c3c2CCCC3(C)C)C1O (stereo not drawn)
2. CC1=C(Br)C(=O)N(c2cc(C(C)(C)C)n(C)n2)C1O (stereo not drawn) [Compound J2]

Response:
4
4

Give me Herbicidal damage score, ZEAMX for each of these compounds, listed below.
1. CC1=C(Cl)C(=O)N(c2cc(C(F)(F)F)[nH]n2)C1O (stereo not drawn)
2. COC1=C(C)C(O)N(c2cc3n(n2)CCC3(C)C)C1=O (stereo not drawn)
3. CC1=C(Cl)C(=O)N(c2cc(CCC(C)C)n(C)n2)C1O (stereo not drawn)

Response:
1. 1
2. 5
3. 0

* * *

Tested on: a variety of test species
Assay: Post-emergence herbicidal activity (Example 8b, Table 3)
Format: in vivo
Settings: Zea mays; application post-emergence; rate 1000 g/ha; evaluated after 13 days; scale 0-5
With a cut-off of 2, any Herbicidal damage score, ZEAMX strictly below it is called Yes; any Herbicidal damage score, ZEAMX meeting it or above is called No.

COMPOUND	DISCRETE_LABEL
CC1=C(Cl)C(=O)N(c2ccn(C)n2)C1O (stereo not shown)	Yes
CC1=C(Cl)C(=O)N(c2cc(C(C)C)n(C)n2)C1O (stereo not shown) [Compound B14]	No
CCC1CCCn2nc(N3C(=O)C(Cl)=C(C)C3O)cc21 (mixture of isomers) [Compound G7]	No
CCn1nc(N2C(=O)C(Cl)=C(C)C2O)cc1C(C)(C)C (stereo not shown) [Compound C8]	No
CCC(C)(CC)c1cc(N2C(=O)C(Cl)=C(C)C2O)n[nH]1 (stereo not shown)	No

Moving on to another compound below.
Request: Quick check: does CCC1CCn2nc(N3C(=O)C(Cl)=C(C)C3O)cc21 (mixture of isomers) have Herbicidal damage score, ZEAMX under 2?
Response: No

* * *

Tested on: a variety of test species
Assay: Post-emergence herbicidal activity (Example 8b, Table 3)
Format: in vivo
Details: Zea mays; application post-emergence; rate 1000 g/ha; evaluated after 13 days; scale 0-5
MEASUREMENT_NAME: Herbicidal damage score, ZEAMX
One number for each entry.

Use these answered entries as a reference point.
COMPOUND	TESTED_ON	Herbicidal damage score, ZEAMX
CC1=C(Cl)C(=O)N(c2cc(C)[nH]n2)C1O (stereo not drawn) [Compound A5]	a variety of test species	3
C=C(C)c1cc(N2C(=O)C(Cl)=C(C)C2O)nn1C (stereo not drawn) [Compound B45]	a variety of test species	4
CC1=C(Cl)C(=O)N(c2cc(C(C)C(F)(F)F)n(C)n2)C1O (stereo not drawn) [Compound B39]	a variety of test species	5

List the reported Herbicidal damage score, ZEAMX of each compound below.
1. CC1=C(Cl)C(=O)N(c2nn(C)c(C(C)(C)C)c2C#N)C1O (stereo not drawn) [Compound D2]
2. CC1=C(Cl)C(=O)N(c2cc3n(n2)CCC3C)C1O (mixture of isomers) [Compound G6]
3. CC1=C(Cl)C(=O)N(c2cc3n(n2)CCSC3(C)C)C1O (stereo not drawn) [Compound G10]
4. CC1=C(Cl)C(=O)N(c2nn(C)c(C(C)(C)CCl)c2Cl)C1O (stereo not drawn) [Compound D4]
5. CC1=C(Cl)C(=O)N(c2cc(C(C)(C)C)n(C)n2)C1O (stereo not drawn) [Compound B2]

Response:
3
5
4
0
5

Request: Suppose we examine the compound COC1=C(OC)C(O)N(c2cc3n(n2)CCC3(C)C)C1=O (stereo not drawn) [Compound W1] ; what Herbicidal damage score, ZEAMX value has been reported?
Response: 5

* * *

Tested on: a variety of test species
Assay: Post-emergence herbicidal activity (Example 8b, Table 3)
Assay type: in vivo
Conditions: Zea mays; application post-emergence; rate 1000 g/ha; evaluated after 13 days; scale 0-5
For each entry below, report its Herbicidal damage score, ZEAMX value.
Numbers only.

Study these solved cases before continuing.
COMPOUND	OBSERVED_RESULT
CC1=C(Cl)C(=O)N(c2cc(/C=C/C(C)(C)C)n(C)n2)C1O (centres unmarked) [Compound B17]	1
CC1=C(Br)C(=O)N(c2cc3n(n2)CCCC3(C)C)C1O (centres unmarked)	3
COC1=C(C)C(O)N(c2cc(C(C)(C)C)n(C)n2)C1=O (centres unmarked) [Compound H2]	4
CC1=C(Cl)C(=O)N(c2cc(C(C)(C)C)n(C)n2)C1OC(=O)Oc1ccccc1 (centres unmarked) [Compound F2]	5

For the next question, use this compound.
Request: Return reported Herbicidal damage score, ZEAMX; argument: CC1=C(Cl)C(=O)N(c2cc(Cc3ccccc3)n(C)n2)C1O (centres unmarked)
Response: 1

* * *

System: a variety of test species
Experiment: Pre-emergence herbicidal activity (Example 8a, Table 2)
Assay type: in vivo
Design: key: 0 = no damage to plant, 5 = total damage to plant
Conditions: SETFA; application pre-emergence; rate 1000 g/ha; evaluated after 13 days
Use fulfilled when the recorded Pre-emergence herbicidal activity, damage score SETFA is no lower than 4; use not fulfilled when it is lower.

COMPOUND	DISCRETE_LABEL
CC1=C(Cl)C(=O)N(c2cc(C#CC(C)C)n(C)n2)C1O (stereo not drawn)	not fulfilled
CC1=C(Cl)C(=O)N(c2nn(C)c(C(C)(C)CCl)c2Cl)C1O (stereo not drawn)	not fulfilled
CCn1nc(N2C(=O)C(Cl)=C(C)C2O)cc1C(C)(C)C (stereo not drawn) [Compound C8]	fulfilled

Request: I'd appreciate it if you could say whether CC1=C(Br)C(=O)N(c2cc3n(n2)CCC3(C)C)C1O (stereo not drawn) has Pre-emergence herbicidal activity, damage score SETFA at least equal to 4.
Response: fulfilled

Request: Same lookup for CC1=C(Br)C(=O)N(c2nn(C)c3c2CCC3(C)C)C1O (stereo not drawn) , please.
Response: fulfilled

Request: Cool, now CCOC(c1cc(N2C(=O)C(Cl)=C(C)C2O)nn1C)C(C)(C)C (mixture of isomers)
Response: not fulfilled

Request: Likewise for CC1=C(Cl)C(=O)N(c2nn(C)c(C(C)(C)C)c2Cl)C1O (stereo not drawn) ?
Response: fulfilled

Request: What do you have for CC(C)=C(C)c1cc(N2C(=O)C(Cl)=C(C)C2O)nn1C (stereo not drawn) ?
Response: not fulfilled

Request: Then this compound: CC1=C(Cl)C(=O)N(c2cc3n(n2)CCC3(C)C)C1O (stereo not drawn) [Compound G2]
Response: fulfilled

Request: # iterate: CC1=C(Cl)C(=O)N(c2cc(Cc3ccccc3)n(C)n2)C1O (stereo not drawn)
Response: not fulfilled

Request: Cool, now CC1=C(Cl)C(=O)N(c2cc(/C=C/C(C)(C)C)n(C)n2)C1O (stereo not drawn) [Compound B11]
Response: not fulfilled

Request: Then this compound: CC1=C(Cl)C(=O)N(c2cc(C3CC3)[nH]n2)C1O (stereo not drawn)
Response: fulfilled

Request: Lookup CC1=C(Cl)C(=O)N(c2cc(C#N)n(CC(F)(F)F)n2)C1O (stereo not drawn)
Response: not fulfilled

Request: Try this compound next: CC1=C(Br)C(=O)N(c2cc3n(n2)CCS(=O)(=O)C3(C)C)C1O (stereo not drawn)
Response: not fulfilled

Request: For CC1=C(Cl)C(=O)N(c2cc3n(n2)CC[S+]([O-])C3(C)C)C1O (mixture of isomers) then?
Response: not fulfilled

Request: And the next one, CC1=C(Cl)C(=O)N(c2cc(CCC(C)C)n(C)n2)C1O (stereo not drawn) ?
Response: not fulfilled

Request: Moving on to the next compound: CC1=C(Cl)C(=O)N(c2cc(C#CC(C)(C)C)n(C)n2)C1O (stereo not drawn)
Response: not fulfilled

Request: Okay, and CC1=C(Cl)C(=O)N(c2cc3n(n2)CCS(=O)(=O)C3(C)C)C1O (stereo not drawn) ?
Response: fulfilled

Request: Next: CC1=C(Cl)C(=O)N(c2nn(C)c3c2CCCC3(C)C)C1O (stereo not drawn)
Response: fulfilled
